# Experimental Target: MMP2 (Homo sapiens)
# Sequence (P08253 110-660, species assumed): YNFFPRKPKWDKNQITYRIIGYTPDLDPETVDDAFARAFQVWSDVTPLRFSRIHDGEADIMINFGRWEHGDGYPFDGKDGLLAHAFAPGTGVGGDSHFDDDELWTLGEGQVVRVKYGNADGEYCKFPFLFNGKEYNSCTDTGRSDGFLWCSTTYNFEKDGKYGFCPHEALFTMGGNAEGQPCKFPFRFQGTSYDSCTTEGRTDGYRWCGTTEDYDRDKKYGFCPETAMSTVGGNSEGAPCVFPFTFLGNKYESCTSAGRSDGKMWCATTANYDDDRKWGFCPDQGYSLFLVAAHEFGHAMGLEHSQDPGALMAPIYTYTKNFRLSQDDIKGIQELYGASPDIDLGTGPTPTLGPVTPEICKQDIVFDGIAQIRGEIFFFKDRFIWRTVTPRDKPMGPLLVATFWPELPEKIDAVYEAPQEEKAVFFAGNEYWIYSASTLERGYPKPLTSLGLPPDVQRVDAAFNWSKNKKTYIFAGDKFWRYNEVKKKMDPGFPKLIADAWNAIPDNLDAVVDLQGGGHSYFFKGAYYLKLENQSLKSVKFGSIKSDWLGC
# Assay Notes: Enzymolysis assay of polypeptides by MMP2 (RP-HPLC)
# Type: biochemical
# Condition Description: test polypeptide 100 µmol, activated MMP2, 37°C, 4 h
Square brackets hold non-standard residues; d marks the D form. Peptide text beside a SMILES is read from it. Cit = NC(=O)NCCC[C@H](N)C(=O)O
Parameter: Enzymolysis efficiency (%)

Here is how some molecules turned out for Enzymolysis efficiency (%).
CC(=O)NCC(=O)N1CCC[C@H]1C(=O)N[C@@H](CCCNC(=N)N)C(=O)NCC(=O)N[C@@H](CC(C)C)C(=O)N[C@H](C(=O)N[C@@H](CCCNC(N)=O)C(N)=O)C(C)C [Compound 1-P11] (Ac-GPRGLV[Cit]-NH2) | 86.82
CC(=O)N[C@@H](CO)C(=O)N1CCC[C@H]1C(=O)N[C@@H](CCCNC(=N)N)C(=O)NCC(=O)N[C@@H](CC(C)C)C(=O)N[C@H](C(=O)N[C@@H](CCCNC(N)=O)C(N)=O)C(C)C [Compound 2-P18] (Ac-SPRGLV[Cit]-NH2) | 86.03
CC(=O)NCC(=O)N1CCC[C@H]1C(=O)N[C@@H](CCCNC(=N)N)C(=O)N[C@@H](CC(N)=O)C(=O)N[C@@H](CC(C)C)C(=O)N[C@H](C(=O)N[C@@H](CCCNC(N)=O)C(N)=O)C(C)C [Compound 2-P9] (Ac-GPRNLV[Cit]-NH2) | 77.00
CC(=O)NCC(=O)N1CCC[C@H]1C(=O)N[C@@H](CCCNC(N)=O)C(=O)N1CCC[C@H]1C(=O)N[C@@H](CC(C)C)C(=O)N[C@H](C(=O)N[C@@H](CCCNC(N)=O)C(N)=O)C(C)C [Compound 2-P11] (Ac-GP[Cit]PLV[Cit]-NH2) | 40.95
CC(=O)N[C@@H](Cc1c[nH]cn1)C(=O)N1CCC[C@H]1C(=O)N[C@@H](CCCNC(=N)N)C(=O)N[C@@H](CC(N)=O)C(=O)N[C@@H](CC(C)C)C(=O)N[C@H](C(=O)N[C@@H](CCCNC(N)=O)C(N)=O)C(C)C [Compound 2-P15] (Ac-HPRNLV[Cit]-NH2) | 63.27

[1] CC(=O)N[C@@H](CO)C(=O)N1CCC[C@H]1C(=O)N[C@@H](CCCNC(N)=O)C(=O)N[C@@H](CO)C(=O)N[C@@H](CC(C)C)C(=O)N[C@H](C(=O)N[C@@H](CCCNC(N)=O)C(N)=O)C(C)C [Compound 2-P23] (Ac-SP[Cit]SLV[Cit]-NH2)
[2] CC(=O)N[C@@H](Cc1c[nH]cn1)C(=O)N1CCC[C@H]1C(=O)N[C@@H](CCCNC(=N)N)C(=O)N[C@@H](CO)C(=O)N[C@@H](CC(C)C)C(=O)N[C@H](C(=O)N[C@@H](CCCNC(N)=O)C(N)=O)C(C)C [Compound 2-P13] (Ac-HPRSLV[Cit]-NH2)
Req: Pick one, 1 or 2 : lowest reported Enzymolysis efficiency (%). Use the label to indicate which entry you chose.
Resp: 1
